All values here come from patent US20240417436A1.

# assayed target: T1, IL-2 receptor βγ complex on pan T cells (human, UniProt P14784 27-551; P31785 23-369)
# T1 sequence (looked up) 1: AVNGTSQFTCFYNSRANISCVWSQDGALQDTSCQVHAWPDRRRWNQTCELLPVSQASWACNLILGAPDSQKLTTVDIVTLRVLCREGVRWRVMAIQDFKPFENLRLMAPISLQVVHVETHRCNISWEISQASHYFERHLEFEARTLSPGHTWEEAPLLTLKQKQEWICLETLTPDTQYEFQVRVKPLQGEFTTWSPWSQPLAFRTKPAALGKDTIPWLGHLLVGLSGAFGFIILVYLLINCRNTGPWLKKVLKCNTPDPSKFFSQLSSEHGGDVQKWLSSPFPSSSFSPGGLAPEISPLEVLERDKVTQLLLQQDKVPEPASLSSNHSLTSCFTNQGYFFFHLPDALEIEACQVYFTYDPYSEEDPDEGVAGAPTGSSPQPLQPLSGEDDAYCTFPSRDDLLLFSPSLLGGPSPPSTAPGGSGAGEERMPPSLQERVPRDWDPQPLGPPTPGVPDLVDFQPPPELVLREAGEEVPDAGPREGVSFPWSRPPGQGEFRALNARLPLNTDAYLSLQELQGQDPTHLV
# T1 sequence (looked up) 2: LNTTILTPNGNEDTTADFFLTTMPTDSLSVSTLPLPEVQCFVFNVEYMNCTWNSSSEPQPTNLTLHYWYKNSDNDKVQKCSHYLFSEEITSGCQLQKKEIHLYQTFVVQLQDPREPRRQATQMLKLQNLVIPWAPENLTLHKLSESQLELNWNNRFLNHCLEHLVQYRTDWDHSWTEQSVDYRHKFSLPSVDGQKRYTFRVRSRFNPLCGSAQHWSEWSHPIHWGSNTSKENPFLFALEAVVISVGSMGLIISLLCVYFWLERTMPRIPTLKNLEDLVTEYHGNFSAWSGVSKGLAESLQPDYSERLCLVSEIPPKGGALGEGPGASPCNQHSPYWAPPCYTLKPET
# procedure text: cell-based or functional assay
[ ]: non-standard residue; d: D form. Ygp = O-(8x polyethylene glycol-amino)-tyrosine; Yn3 = O-(9x polyethylene glycol-azido)-tyrosine; hSer = N[C@@H](CCO)C(=O)O; Nle = CCCC[C@H](N)C(=O)O
readout kind: Average EC50, pSTAT5 assay in pan T cells, intact molecule (nM)
Return type: number; implicit unit nM.

# annotated cases, reported Average EC50, pSTAT5 assay in pan T cells, intact molecule shown
// query So what's the measured Average EC50, pSTAT5 assay in pan T cells, intact molecule for this one? CMP-150 (ligand, not fully specified (residue 22); ends and bridges not checked; also: cleavable moiety on Lys22 side chain, structure not given here) APTSSSTKKTQLQLEHLLLDLK[Nle]ILNGINNYKNPKLTR[Nle]L[hSer][Yn3]KF[Ygp][Nle]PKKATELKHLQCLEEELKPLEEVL[hSer]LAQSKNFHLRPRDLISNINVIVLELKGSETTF[hSer]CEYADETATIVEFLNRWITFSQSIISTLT
// result 6.38

// query Next: CMP-149 (ligand, not fully specified (residue 19); ends and bridges not checked; also: cleavable moiety on Lys19 side chain, structure not given here) APTSSSTKKTQLQLEHLLKDLQ[Nle]ILNGINNYKNPKLTR[Nle]L[hSer][Yn3]KF[Ygp][Nle]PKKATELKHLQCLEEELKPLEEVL[hSer]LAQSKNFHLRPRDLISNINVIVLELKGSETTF[hSer]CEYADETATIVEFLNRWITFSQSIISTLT
// result 46.7

// query Input CMP-146 (ligand, not fully specified (residue 11); ends and bridges not checked; also: cleavable moiety on Lys11 side chain, structure not given here) APTSSSTKKTKLQLEHLLLDLQ[Nle]ILNGINNYKNPKLTR[Nle]L[hSer][Yn3]KF[Ygp][Nle]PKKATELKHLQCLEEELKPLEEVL[hSer]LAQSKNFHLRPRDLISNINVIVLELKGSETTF[hSer]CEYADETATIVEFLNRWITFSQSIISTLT
// result 4.29

// query How about this binder: CMP-148 (ligand, not fully specified (residue 15); ends and bridges not checked; also: cleavable moiety on Lys15 side chain, structure not given here) APTSSSTKKTQLQLKHLLLDLQ[Nle]ILNGINNYKNPKLTR[Nle]L[hSer][Yn3]KF[Ygp][Nle]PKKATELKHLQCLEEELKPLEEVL[hSer]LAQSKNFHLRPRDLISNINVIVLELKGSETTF[hSer]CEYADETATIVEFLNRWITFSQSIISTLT
// result 3.57

***
// query I am curious: what Average EC50, pSTAT5 assay in pan T cells, intact molecule value has been reported for CMP-147 (ligand, not fully specified (residue 13); ends and bridges not checked; also: cleavable moiety on Lys13 side chain, structure not given here) APTSSSTKKTQLKLEHLLLDLQ[Nle]ILNGINNYKNPKLTR[Nle]L[hSer][Yn3]KF[Ygp][Nle]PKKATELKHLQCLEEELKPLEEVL[hSer]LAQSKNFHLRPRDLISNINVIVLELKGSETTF[hSer]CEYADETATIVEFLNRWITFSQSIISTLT ?
// result 3.86
